# target_desc: FGFR1 (Homo sapiens, UniProt P11362)
# Construct: made in house; host or cells: E. coli derived from BL21, infected with T7 phage
# Sequence (P11362 22-822): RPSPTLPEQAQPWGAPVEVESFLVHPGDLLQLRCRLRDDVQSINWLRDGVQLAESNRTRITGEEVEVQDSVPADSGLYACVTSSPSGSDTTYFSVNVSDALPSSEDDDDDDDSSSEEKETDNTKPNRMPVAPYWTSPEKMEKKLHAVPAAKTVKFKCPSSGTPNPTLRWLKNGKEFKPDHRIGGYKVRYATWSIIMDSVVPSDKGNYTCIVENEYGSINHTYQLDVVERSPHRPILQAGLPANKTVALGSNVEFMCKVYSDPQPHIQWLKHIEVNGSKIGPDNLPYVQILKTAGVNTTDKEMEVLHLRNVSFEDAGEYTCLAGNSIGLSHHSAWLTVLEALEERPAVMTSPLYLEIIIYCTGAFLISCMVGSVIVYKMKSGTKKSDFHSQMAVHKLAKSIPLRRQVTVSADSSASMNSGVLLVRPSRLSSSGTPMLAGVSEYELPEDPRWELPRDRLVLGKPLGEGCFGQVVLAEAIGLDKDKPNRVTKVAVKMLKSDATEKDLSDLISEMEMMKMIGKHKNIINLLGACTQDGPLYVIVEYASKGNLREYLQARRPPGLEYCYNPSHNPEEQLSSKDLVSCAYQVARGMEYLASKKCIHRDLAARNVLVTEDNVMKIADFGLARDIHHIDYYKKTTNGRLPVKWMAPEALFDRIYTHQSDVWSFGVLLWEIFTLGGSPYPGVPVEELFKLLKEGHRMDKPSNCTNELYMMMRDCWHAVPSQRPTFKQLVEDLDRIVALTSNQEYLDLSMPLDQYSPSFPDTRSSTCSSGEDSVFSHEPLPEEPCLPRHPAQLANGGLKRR
# run_description: Kinase binding assay (kinase-tagged T7 phage, qPCR), Kd
# measurement_context: read-out: FGFR1 (Kd nM)

{"structure_smiles_string": "COc1cc(NCc2cccnc2)cc(-c2n[nH]c3ccc(O[C@H](C)c4c(Cl)cncc4Cl)cc23)c1", "Kd": "100 to 250 nM"}
{"structure_smiles_string": "C[C@@H](Oc1ccc2[nH]nc(-c3ccc4c(c3)COC3(CCN(C5CCC5)CC3)O4)c2c1)c1c(Cl)cncc1Cl", "Kd": "0.1 to 100 nM"}
{"structure_smiles_string": "CC(C)N1CCOc2ncc(-c3n[nH]c4ccc(O[C@H](C)c5c(Cl)cncc5Cl)cc34)cc21", "Kd": "> 1000 nM"}
{"structure_smiles_string": "C[C@@H](Oc1ccc2[nH]nc(-c3ccc(NC4CC5(C4)CN(S(C)(=O)=O)C5)nc3)c2c1)c1c(Cl)cncc1Cl", "Kd": "0.1 to 100 nM"}
